assay: Cytotoxicity against human HepG2.2.15 cells; format: toxicity, cell-based, HepG2 2.2.15
parameterMeasured: CC50

molecule	parameterMeasured	recordedValue
CC(NS(=O)(=O)c1c2ncccc2c(C(=O)Nc2ccc(F)c(F)c2)n1C)C(F)(F)F (configuration not stated)	CC50	> 30 µM

Continue with the next molecule.
Exam item: # lookup: CC50 of `CC[C@@H](C)NS(=O)(=O)c1ccc(F)c(C(=O)Nc2ccc(F)c(F)c2)c1`
Marked response: > 10 µM

----------
tested on: Hepatitis B virus; experiment: Antiviral activity against Hepatitis B virus infected in HepDE19 cells; format: functional, organism-based
parameterMeasured: pEC50
Keep it numeric: pEC50 is minus log10 of the concentration in mol/L.

Exam item: # lookup: pEC50 of `CC[C@@H](C)NS(=O)(=O)c1ccc(F)c(C(=O)Nc2ccc(F)c(F)c2)c1`
Marked response: 7.10

----------
Examples of compounds with documented CC50 follow.
test: Cytotoxicity against mouse AML12HBV10; format: toxicity, cell-based; conditions: AML12HBV10 cells

compound	recordedValue
CCC(C)NS(=O)(=O)c1ccc(F)c(C(=O)Nc2ccc(F)c(F)c2)c1 (configuration not stated)	> 50 µM

Continue with the next compound.
Exam item: # lookup: CC50 of `CC[C@@H](C)NS(=O)(=O)c1ccc(F)c(C(=O)Nc2ccc(F)c(F)c2)c1`
Marked response: > 10 µM

----------
tested on: Hepatitis B virus; experiment: Antiviral activity against HBV harboring wild type core protein; assay type: functional, organism-based
Examples of molecules with documented EC50 follow.
Please state the figure in nM; there is no need to write the unit.

Known EC50 results, listed for orientation:
compound	parameterMeasured	recordedValue
O=C(Nc1cc(F)c(F)c(F)c1)c1ccc(F)c(S(=O)(=O)N2CCC(O)CC2)c1	EC50	390
COC(=O)C1=C(C)NC(c2ncc(F)cc2F)=N[C@H]1c1ccc(F)cc1Cl	EC50	149

Continue with the next molecule.
Exam item: Hepatitis B virus / EC50 / `COC(=O)C1=C(CN2CC(F)(F)C[C@H]2C(=O)O)NC(c2nccs2)=N[C@H]1c1ccc(F)cc1Cl` : value?
Marked response: 91

----------
system: Hepatitis B virus; assay: Antiviral activity against HBV harboring core protein P25G mutant; format: functional, organism-based
Examples of compounds with documented EC50 follow.
Please state the figure in µM; there is no need to write the unit.

compound	EC50 / µM
COC(=O)C1=C(CN2CC(F)(F)C[C@H]2C(=O)O)NC(c2nccs2)=N[C@H]1c1ccc(F)cc1Cl	1.38

Continue with the next compound.
Exam item: # lookup: EC50 of `O=C(Nc1cc(F)c(F)c(F)c1)c1ccc(F)c(S(=O)(=O)N2CCC(O)CC2)c1`
Marked response: 4.75

----------
test system: Hepatitis B virus; assay: Antiviral activity against Hepatitis B virus harboring rtN236T transfected in HepG2 cells; format: functional, organism-based
parameterMeasured: pEC50
Keep it numeric: pEC50 is minus log10 of the concentration in mol/L.

Exam item: Hepatitis B virus / pEC50 / `O=C(Nc1cc(F)c(F)c(F)c1)c1ccc(F)c(S(=O)(=O)N2CCC(O)CC2)c1` : value?
Marked response: 6.09
